tested on: plasma Factor VII enzyme activity; assay: Mouse Factor VII dosing / Factor VII Activity Assay; format: in vivo; details: percent knock down of plasma Factor VII activity; CD-1 mice, single IV dose 0.03 mg/kg, 48 h; LNP Chol/DSPC/S010 45/44/9/2
Listed next: entries and their corresponding KD FVII 0.03 mg/kg.
Could you give me the number in %? Just the number is fine.

Tell me its KD FVII 0.03 mg/kg given CCCCCCCC(=O)OC[C@H](CCOc1cc(CN(C)C)cc(OCC[C@@H](COC(=O)CCCCCCC)OC(=O)CCCCCCC)c1)OC(=O)CCCCCCC as the entry.
89.71

Report measured KD FVII 0.03 mg/kg; entry is CCCCC/C=C\C/C=C\CCCCCCCC(=O)OCCCCOc1cc(CN(C)C)cc(OCCCCOC(=O)CCCCCCC/C=C\CCCCCCCC)c1
75

Return value of KD FVII 0.03 mg/kg for input CCCCC/C=C\C/C=C\CCCCCCCC(=O)OCCOc1cc(CN(C)C)cc(OCCOC(=O)CCCCCCC/C=C\C/C=C\CCCCC)c1 , no commentary.
8.2

Supply measured KD FVII 0.03 mg/kg of CCCCCCCC(=O)OC[C@@H](CCOc1cc(CN(C)C)cc(OCC[C@@H](COC(=O)CCCCCCC)OC(=O)CCCCCCC)c1)OC(=O)CCCCCCC in your reply.
89.4

Supply reported KD FVII 0.03 mg/kg belonging to this molecule: CCCCC/C=C\C/C=C\CCCCCCCC(=O)OCCCCOc1cc(CN(C)C)cc(OCCCCOC(=O)CCCCCCC/C=C\C/C=C\CCCCC)c1
43.6

---
State its KD FVII 0.03 mg/kg for this molecule: CCCCCCCC/C=C\CCCCCCCC(=O)OCCCCOc1cc(CN(C)C)cc(OCCCCOC(=O)CCCCCCC/C=C\CCCCCCCC)c1
49.75

# return recorded KD FVII 0.03 mg/kg for input CCCCCCCC(=O)OCCCCCCCCOc1cc(CN(C)C)cc(OCCCCCCCCOC(=O)CCCCCCC)c1
92.8

For CCCCCCCC/C=C\CCCCCCCCOc1cc(CN(C)C)cc(OCCCCCCCC/C=C\CCCCCCCC)c1 , write its KD FVII 0.03 mg/kg.
30.8

----------
test system: respiratory syncytial virus F protein; experiment: Immunization studies, anti-RSV-F titers; format: in vivo; conditions: anti-RSV-F titer; BALB/c; course A = days 0 & 21; 2 weeks after second dose; liposomes with 0.1 μg vA317 replicon (naked: 1 μg)
molecules and their reported 2wp2 pool 1
Lab note: jot down the number only; don't add units.

Give recorded 2wp2 pool 1. CCCCC/C=C\C/C=C\CCCCCCCCOc1cc(C(=O)OCCCN(C)C)cc(OCCCCCCCC/C=C\C/C=C\CCCCC)n1
1611

Specify measured 2wp2 pool 1 for CCCCC/C=C\C/C=C\CCCCCCCCNC(=O)c1cc(COC(=O)CCCN(C)C)cc(C(=O)NCCCCCCCC/C=C\C/C=C\CCCCC)c1 .
75

Give the value of 2wp2 pool 1 reported for the following: CCCCC/C=C\C/C=C\CCCCCCCC(=O)OCc1cc(COC(=O)CCCCCCC/C=C\C/C=C\CCCCC)cc(COC(=O)OCCN(C)C)c1
31550

Let me know recorded 2wp2 pool 1 for CCCCC/C=C\C/C=C\CCCCCCCC(=O)OCc1cc(COC(=O)CCCCCCC/C=C\C/C=C\CCCCC)cc(COC(=O)OCCCN(CC)CC)c1 , thanks.
23851

Specify measured 2wp2 pool 1 for CCCCC/C=C\C/C=C\CCCCCCCCOc1cc(CN(C)C)cc(OCCCCCCCC/C=C\C/C=C\CCCCC)c1 .
12785

***
Report measured 2wp2 pool 1; entry is CCCCC/C=C\C/C=C\CCCCCCCCOc1cc(COC(=O)CCCN(C)C)cc(OCCCCCCCC/C=C\C/C=C\CCCCC)c1
7157

Consider the molecule CCCCCCCC/C=C\CCCCCCCCOc1cc(OCCCCCCCC/C=C\CCCCCCCC)cc(C2OCC(CN3CCCC3)O2)c1 (stereo not shown) and give its recorded 2wp2 pool 1.
29707

----------
test system: respiratory syncytial virus F protein; test: Immunization studies, anti-RSV-F titers; assay type: in vivo; conditions: anti-RSV-F titer; BALB/c; course A = days 0 & 21; 2 weeks after first dose; liposomes with 0.1 μg vA317 replicon (naked: 1 μg)
Measured 2wp1 pool 1 accompanies every entry in the list below.
Write the number on its own, no unit after it.

Supply measured 2wp1 pool 1 of CCCCCCCC/C=C\CCCCCCCCOc1cc(OCCCCCCCC/C=C\CCCCCCCC)cc(C2OCC(CN3CCCC3)O2)c1 (centres unmarked) in your reply.
1832

Assign 2wp1 pool 1 to the following record: CCCCC/C=C\C/C=C\CCCCCCCCOc1cc(COC(=O)CCCN(C)C)cc(OCCCCCCCC/C=C\C/C=C\CCCCC)c1
495

Give reported 2wp1 pool 1 value for CCCCC/C=C\C/C=C\CCCCCCCCOc1cc(CN(C)C)cc(OCCCCCCCC/C=C\C/C=C\CCCCC)c1
217

Report 2wp1 pool 1, nothing else, for this molecule: CCCCC/C=C\C/C=C\CCCCCCCC(=O)Oc1cc(COC(=O)CCN(C)C)cc(OC(=O)CCCCCCC/C=C\C/C=C\CCCCC)c1
4

Tell me 2wp1 pool 1 reported for CCCCC/C=C\C/C=C\CCCCCCCCOc1cc(COC(=O)OCCCN(C)C)cc(OCCCCCCCC/C=C\C/C=C\CCCCC)c1
1031

----------
assay: Polydispersity index (PDI) of lipid nanoparticle (dynamic light scattering); format: physicochemical; settings: FVII siRNA LNP; Chol/DSPC/S010, molar ratio 45/44/9/2
Assay readout: PDI
Just the number, please.

Some entries whose results are on file:
Provide measured PDI value, entry: CCCCC/C=C\C/C=C\CCCCCCCC(=O)Oc1cc(COC(=O)CCN(C)C)cc(OC(=O)CCCCCCC/C=C\C/C=C\CCCCC)c1 [Example 26]
0.046

Provide only the value of recorded PDI for CCCCC/C=C\C/C=C\CCCCCCCC(=O)OCCCCOc1cc(CN(C)C)cc(OCCCCOC(=O)CCCCCCC/C=C\CCCCCCCC)c1 [Example 63]
0.057

Fill in PDI for record CCCCC/C=C\C/C=C\CCCCCCCCOc1cc(COC(=O)CCN(C)C)cc(OCCCCCCCC/C=C\C/C=C\CCCCC)n1 [Example 31]
0.049

---
Look up and state reported PDI for CCCCC/C=C\C/C=C\CCCCCCCCOC(=O)CCCCOc1cc(CN(C)C)cc(OCCCCC(=O)OCCCCCCCC/C=C\C/C=C\CCCCC)c1 [Example 89]
0.076

Entry CCCCC/C=C\C/C=C\CCCCCCCCOC(=O)CCC(=O)OCc1cc(COC(=O)CCC(=O)OCCCCCCCC/C=C\C/C=C\CCCCC)cc(CN(C)C)c1 [Example 77] needs its PDI filled in; supply it.
0.014

Report measured PDI; entry is CCCCC/C=C\C/C=C\CCCCCCCC(=O)OCCCCOc1cc(CN(C)C)cc(OCCCCOC(=O)CC(CCCCCCCC)CCCCCCCC)c1 [Ex. 109]
0.09

Give the reported PDI for this compound. CCCCC/C=C\C/C=C\CCCCCCCC(=O)OCCCOc1cc(CN(C)C)cc(OCCCOC(=O)CC(CCCCCCCC)CCCCCCCC)c1 [Ex. 97]
0.106

Supply reported PDI belonging to this compound: CCCCCCCCOC(=O)CCCCCCCC(=O)OCCCOc1cc(CN(C)C)cc(OCCCOC(=O)CCCCCCCC(=O)OCCCCCCCC)c1 [Ex. 98]
0.096

Retrieve PDI measured for CCCCCCCC(=O)OCCCCCCCCCCOC(=O)CCC(=O)OCc1cc(COC(=O)CCC(=O)OCCCCCCCCCCOC(=O)CCCCCCC)cc(CN(C)C)c1 [Example 78] and print it.
0.043

Query PDI for CCCCC/C=C\C/C=C\CCCCCCCCOc1cc(CN(C)C)cc(OCCCCCCCC/C=C\C/C=C\CCCCC)c1 [Example 2]
0.067

----------
test: Polydispersity index (PDI) of lipid nanoparticle (dynamic light scattering); assay type: physicochemical; conditions: leptin mRNA lipid nanoparticles
Catalogue of PDI readings, one per entry.
Reply with just the number.

Return value of PDI for input CCCCCCCCCOC(=O)CCCCCCC(=O)OCc1cc(COC(=O)CCCCCCC(=O)OCCCCCCCCC)cc(CN(C)C)c1 [Example 79] , no commentary.
0.116

Provide one value: measured PDI of CCCCCCCC(=O)OCCCCCCCCCCOC(=O)CCC(=O)OCc1cc(COC(=O)CCC(=O)OCCCCCCCCCCOC(=O)CCCCCCC)cc(CN(C)C)c1 [Example 78]
0.150

Return value of PDI for input CCCCCCCCCCOC(=O)CCCCCCCOc1cc(CN(C)C)cc(OCCCCCCCC(=O)OCCCCCCCCCC)c1 [Example 57] , no commentary.
0.102

Report PDI for CCCCCCCCCCCCOC(=O)CCCCCOc1cc(CN(C)C)cc(OCCCCCC(=O)OCCCCCCCCCCCC)c1 [Example 90]
0.090
